# Tested on: chloroquine-resistant Plasmodium falciparum strain FcB1
# test protocol: Activity against erythrocytic stages of cultured P. falciparum (LDH assay)
# Format: cell-based
# condition summary: Plasmodium falciparum, FCB1, 48 h, read-out: FCB1 of P. falciparum IC50
# Description: The antiplasmodial activity was studied in vitro against the chloroquine-resistant Plasmodium falciparum strain FcB1 by a micromethod using the lactate deshydrogenase (LDH) assay (Makler and Hinrichs). Parasites were cultivated using the method of Trager and Jensen. […] Accumulation of the reduced form of APAD was measured at λ = 650 nm, using a spectrophotometer (microplate reader, Metertech). IC50 values were determined graphically in a concentration versus percent inhibition curve.
pIC50: −log10 of the molar value.
recorded metric: pIC50

I am curious: what pIC50 value has been reported for COC1=C(Br)[C@H](O)[C@@]2(C=C1Br)CC(C(=O)NCCCOc1c(Br)cc(CCNC(=O)C3=NO[C@]4(C=C(Br)C(OC)=C(Br)[C@@H]4O)C3)cc1Br)=NO2 ? < 4.00
